# systemUnderTest: Adenosine receptor A1 (Homo sapiens) (UniProt P30542)
# experimentDescription: Inhibition of [3H]CCPA binding to human Adenosine A1 receptor at 10e-6 M
readoutName: Specific binding (%)

Check out these entries, answers already filled in.
| compound | systemUnderTest | unit | Specific binding |
| --- | --- | --- | --- |
| C/N=c1/nc(-c2ccccc2)n(-c2cccc(C)c2)s1 | Adenosine receptor A1 (Homo sapiens) (UniProt P30542) | % | 23 |
| CCCC/N=c1/nc(-c2ccccc2)n(-c2cccc(C)c2)s1 | Adenosine receptor A1 (Homo sapiens) (UniProt P30542) | % | 36 |
| c1ccc(-c2n/c(=N/C3CCCC3)sn2-c2ccccc2)cc1 | Adenosine receptor A1 (Homo sapiens) (UniProt P30542) | % | 25 |
| CC/N=c1/nc(-c2ccccc2)n(-c2ccccc2)s1 | Adenosine receptor A1 (Homo sapiens) (UniProt P30542) | % | 20 |
| c1ccc(C/N=c2\nc(-c3ccccc3)n(-c3ccccc3)s2)cc1 | Adenosine receptor A1 (Homo sapiens) (UniProt P30542) | % | 43 |

I: CC(C)/N=c1/nc(-c2ccccc2)n(-c2ccccc2)s1
II: C/N=c1\nc(C2C=CC=CC2)n(C2C=CC=CC2)s1 (stereo unspecified)
Q: Pick the one with the larger Specific binding: I vs II Record your answer as the label of the chosen record.
A: I
(I: 23%, II: 16%)

A: CCC/N=c1/nc(-c2ccccc2)n(-c2ccccc2)s1
B: Cc1cccc(-n2s/c(=N\c3ccccc3)nc2-c2ccccc2)c1
Q: Pick the one with the larger Specific binding: A vs B Record your answer as the label of the chosen record.
A: B
(B: 89%, A: 26%)

A: CCC/N=c1/nc(-c2ccccc2)n(-c2cccc(C)c2)s1
B: Cc1cccc(-n2s/c(=N\Cc3ccccc3)nc2-c2ccccc2)c1
Q: Select one. Lower Specific binding: A or B Record your answer as the label of the chosen record.
A: A
(A: 29%, B: 66%)

###

# systemUnderTest: Adenosine receptor A1 (Homo sapiens) (UniProt P30542)
# Sequence (whole entry): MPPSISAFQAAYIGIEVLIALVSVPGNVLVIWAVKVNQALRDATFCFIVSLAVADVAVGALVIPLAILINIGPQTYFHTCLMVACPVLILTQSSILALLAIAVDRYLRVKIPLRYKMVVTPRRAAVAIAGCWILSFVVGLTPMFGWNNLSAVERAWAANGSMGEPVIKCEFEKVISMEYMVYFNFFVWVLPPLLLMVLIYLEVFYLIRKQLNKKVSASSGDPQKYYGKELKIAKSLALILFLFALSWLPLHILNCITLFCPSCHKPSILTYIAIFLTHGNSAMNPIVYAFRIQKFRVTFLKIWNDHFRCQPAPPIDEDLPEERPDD
# experimentDescription: Inhibition of [3H]DPCPX binding to human Adenosine A1 receptor at 10e-6 M
readoutName: Specific binding (%)

| smilesInput | unit | value |
| --- | --- | --- |
| CC(C)/N=c1/nc(-c2ccccc2)n(-c2ccccc2)s1 | % | 126 |
| Cc1cccc(-n2s/c(=N\Cc3ccccc3)nc2-c2ccccc2)c1 | % | 116 |
| c1ccc(-c2n/c(=N/C3CCCC3)sn2-c2ccccc2)cc1 | % | 123 |
| OCCC/N=c1/nc(-c2ccccc2)n(-c2ccccc2)s1 | % | 127 |
| Cc1cccc(-n2s/c(=N\c3ccccc3)nc2-c2ccccc2)c1 | % | 107 |
| CC/N=c1/nc(-c2ccccc2)n(-c2cccc(C)c2)s1 | % | 125 |
| Cc1cccc(-n2s/c(=N/CCCO)nc2-c2ccccc2)c1 | % | 142 |
| CCC/N=c1/nc(-c2ccccc2)n(-c2cccc(C)c2)s1 | % | 126 |
| CCC/N=c1/nc(-c2ccccc2)n(-c2ccccc2)s1 | % | 135 |
| c1ccc(C/N=c2\nc(-c3ccccc3)n(-c3ccccc3)s2)cc1 | % | 124 |
| CC/N=c1/nc(-c2ccccc2)n(-c2ccccc2)s1 | % | 134 |
| c1ccc(/N=c2/nc(-c3ccccc3)n(-c3ccccc3)s2)cc1 | % | 106 |

###

# systemUnderTest: Adenosine receptor A1 (Homo sapiens) (UniProt P30542)
# experimentDescription: Inhibition of [3H]CCPA binding to human Adenosine A1 receptor at 10e-6 M
readoutName: Specific binding (%)

| smilesInput | readoutName | unit | value |
| --- | --- | --- | --- |
| Cc1cccc(-n2s/c(=N\C(C)C)nc2-c2ccccc2)c1 | Specific binding | % | 29 |

I: Cc1cccc(-n2s/c(=N/CCCO)nc2-c2ccccc2)c1
II: c1ccc(/N=c2/nc(-c3ccccc3)n(-c3ccccc3)s2)cc1
Q: Pick the one with the larger Specific binding: I vs II Record your answer as the label of the chosen record.
A: II

###

# systemUnderTest: Adenosine receptor A1 (Homo sapiens) (UniProt P30542)
# experimentDescription: Inhibition of [3H]CCPA binding to human Adenosine A1 receptor at 10e-6 M
readoutName: Specific binding (%)

| smilesInput | systemUnderTest | readoutName | unit | value |
| --- | --- | --- | --- | --- |
| CC/N=c1/nc(-c2ccccc2)n(-c2cccc(C)c2)s1 | Adenosine receptor A1 (Homo sapiens) (UniProt P30542) | Specific binding | % | 24 |
| Cc1cccc(-n2s/c(=N/C3CCCC3)nc2-c2ccccc2)c1 | Adenosine receptor A1 (Homo sapiens) (UniProt P30542) | Specific binding | % | 35 |
| CCCC/N=c1/nc(-c2ccccc2)n(-c2ccccc2)s1 | Adenosine receptor A1 (Homo sapiens) (UniProt P30542) | Specific binding | % | 27 |
| OCCC/N=c1/nc(-c2ccccc2)n(-c2ccccc2)s1 | Adenosine receptor A1 (Homo sapiens) (UniProt P30542) | Specific binding | % | 27 |
